- method.description: Oral bioavailability in dog
- Assay type: ADME, organism-based, Canis lupus familiaris
- condition.details: in vivo
measurement.name: bioavailability (%)
Hi! Could you send only the number? It should be in %, unit omitted.

Query: Query (compound): Cc1c(F)cc(C(=O)NC2CC2)cc1-c1ccc(C(=O)NCC(C)(C)C)cn1 ; field requested: bioavailability
Response: 55

====

- method.description: Oral bioavailability in cynomolgus monkey at 1.4 mg/kg
- Type: ADME, organism-based, Macaca fascicularis
- condition.details: in vivo
measurement.name: bioavailability (%)
Lab book: enter the figure in %, no units written.

Query: Entry under review: Cc1c(F)cc(C(=O)NC2CC2)cc1-c1ccc(C(=O)NCC(C)(C)C)cn1 . Reported bioavailability?
Response: 35
